Source listed as patent US5770691A.

# assay procedure: Solubility of substrate
# Assay type: physicochemical
# test settings: 2.5% DMSO in water; read-out: soluble up to a concentration
Where a SMILES comes first, the peptide text is derived from it. [ ]: non-standard residue; d: D form. The star is where a group is joined. Dnp = O=[N+]([O-])c1ccc(*)c([N+](=O)[O-])c1; Mca = COc1ccc2c(CC(=O)*)cc(=O)oc2c1; Nva = CCC[C@H](N)C(=O)O
endpoint name: solubility

stdin: # lookup: solubility of CCC[C@H](NC(=O)[C@H](CCC(=O)O)NC(=O)[C@@H](NC(=O)[C@@H]1CCCN1C(=O)[C@H](CCCCN)NC(=O)[C@@H]1CCCN1C(=O)[C@H](CCCNC(=N)N)NC(=O)Cc1cc(=O)oc2cc(OC)ccc12)C(C)C)C(=O)N[C@@H](Cc1c[nH]c2ccccc12)C(=O)N[C@@H](CCCNC(=N)N)C(=O)N[C@@H](CCCCNc1ccc([N+](=O)[O-])cc1[N+](=O)[O-])C(N)=O [NFF-3] (Mca-RPKPVE[Nva]WRK(Dnp)-NH2)
stdout: ≥ 250 µM
